assay: A CellTox Green Cytotoxicity Assay to monitor cytotoxicity in HepG2 cells - 8 hour (AID 1224890); details: CellTox Green fluorescence; series mostly up to 76.8 µM; note: nearly all actives have a fitted effect of over 45% in size
Records with an inconclusive call do not appear. The source made the active and inactive calls. Calls come from the whole dose curve; as a rule, active = well fitted activation curve with a large enough effect in the repeat runs; inconclusive = weak or mixed curves; inactive = flat fitted curve, though single readings scatter.
Answer with one of the outcomes given here: YES = active, NO = inactive

{"Molecule": "CCCCCCCCOc1ccccc1C(=O)Nc1ccc(C(=O)OCC[N+](C)(CC)CC)cc1", "Group": "YES"}
{"Molecule": "Cc1cccc(S(=O)(=O)O)c1C", "Group": "NO"}
{"Molecule": "O=C(OCC(COC(=O)c1ccccc1)(COC(=O)c1ccccc1)COC(=O)c1ccccc1)c1ccccc1", "Group": "NO"}
{"Molecule": "CCC1OCC(COc2ccc(Oc3ccccc3)cc2)O1 (centres undefined)", "Group": "NO"}
{"Molecule": "CCCCCCCCCCCCCCCS(=O)(=O)Oc1ccccc1", "Group": "NO"}
{"Molecule": "CCCCCCCCCCn1cc[n+](CCCCCCCCCC)c1C", "Group": "YES"}
{"Molecule": "NC(=O)NS(=O)(=O)c1ccc(N)cc1", "Group": "NO"}
{"Molecule": "CO[Si](CCCNc1ccccc1)(OC)OC", "Group": "NO"}

Exercise: // param item: CC(C)=CCOc1ccc(/C=C/C(=O)c2ccc(OCC=C(C)C)cc2OCC(=O)O)cc1 ; yields the recorded call
Key: NO

Exercise: Then what about the molecule CNC(=O)c1ccccc1 ?
Key: NO

Exercise: Then what about the molecule Clc1ccc2n[nH]nc2c1 ?
Key: NO

Exercise: Then what about the molecule OCCCCCCCCCCCCBr ?
Key: NO

Exercise: Then what about the molecule CCOC(=O)/C=C(C)/C=C/C=C(C)/C=C/c1c(C)cc(OC)c(C)c1C ?
Key: NO

Exercise: Then what about the molecule C[n+]1ccn(Cc2ccccc2)c1 ?
Key: NO

* * *

assay: qHTS assay to identify small molecule antagonists of the androgen receptor (AR) signaling pathway - cell viability counter screen (AID 743033; note: nearly all actives have a fitted effect of over 45% in size; note: potency is the fitted concentration of half-maximal effect); settings: AR-bla HEK293 viability, CellTiter-Glo luminescence, 16 h; series mostly up to 58.5 µM
Results filed as inconclusive are left out. Calls of active or inactive are those of the source. Calls follow the shape of the dose curve; as a rule, active = well fitted cell-killing curve with a large enough effect in the repeat runs; inconclusive = weak or mixed curves; inactive = no such curve, though single readings can be large or run the other way.
Reported Endpoint: Potency

{"Compound": "CSc1cnc(C)cn1", "Measurement": "inactive"}
{"Compound": "C1CCCC1", "Measurement": "inactive"}
{"Compound": "CCN(C(=O)c1cc(C)cc(OC[C@H](C)Nc2ccncc2)c1)C(C)C", "Measurement": "inactive"}
{"Compound": "Oc1ccc(C2(c3ccc(O)cc3)CC3CC2C2CCCC32)cc1 (configuration not stated)", "Measurement": "47 µM (active)"}

Exercise: If you can, please state the reported Potency value of Cc1cccc(CN2CCN(C(c3ccccc3)c3ccc(Cl)cc3)CC2)c1 (configuration not stated) .
Key: inactive

Exercise: Then what about the compound O=[N+]([O-])c1cc(Cl)c(Cl)c(Cl)c1Cl ?
Key: inactive

* * *

target: Progesterone receptor (Homo sapiens) (UniProt P06401); test: qHTS assay to identify small molecule agonists of the progesterone receptor (PR) signaling pathway (AID 1346784); settings: PR-UAS-bla HEK293T, beta-lactamase FRET ratio, 16 h; series mostly up to 92.4 µM; note: nearly all actives have a fitted effect of over 30% in size
Sequence (P06401 whole entry, looked up): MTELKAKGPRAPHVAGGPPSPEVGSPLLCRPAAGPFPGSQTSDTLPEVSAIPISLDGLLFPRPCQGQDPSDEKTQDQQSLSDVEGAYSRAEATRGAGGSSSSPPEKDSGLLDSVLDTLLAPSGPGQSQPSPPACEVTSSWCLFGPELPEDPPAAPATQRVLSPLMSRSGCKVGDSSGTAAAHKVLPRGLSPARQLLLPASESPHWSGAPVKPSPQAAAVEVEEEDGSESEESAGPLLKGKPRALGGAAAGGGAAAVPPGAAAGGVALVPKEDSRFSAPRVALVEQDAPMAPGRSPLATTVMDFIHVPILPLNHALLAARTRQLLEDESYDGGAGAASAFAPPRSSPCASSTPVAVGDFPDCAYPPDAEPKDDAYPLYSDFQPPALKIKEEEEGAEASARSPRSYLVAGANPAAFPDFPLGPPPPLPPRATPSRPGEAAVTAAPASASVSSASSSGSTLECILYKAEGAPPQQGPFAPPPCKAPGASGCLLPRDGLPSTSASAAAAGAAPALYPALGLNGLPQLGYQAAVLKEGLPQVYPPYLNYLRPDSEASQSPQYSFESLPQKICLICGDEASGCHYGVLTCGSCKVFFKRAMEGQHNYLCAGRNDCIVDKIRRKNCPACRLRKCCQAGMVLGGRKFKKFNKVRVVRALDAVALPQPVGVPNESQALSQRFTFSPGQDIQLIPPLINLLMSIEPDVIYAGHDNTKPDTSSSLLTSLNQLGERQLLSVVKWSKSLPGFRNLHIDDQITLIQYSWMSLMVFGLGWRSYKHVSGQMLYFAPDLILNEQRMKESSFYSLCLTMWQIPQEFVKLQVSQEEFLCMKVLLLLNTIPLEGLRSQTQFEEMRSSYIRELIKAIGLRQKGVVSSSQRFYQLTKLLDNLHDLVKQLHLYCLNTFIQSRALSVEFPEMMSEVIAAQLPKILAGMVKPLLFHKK
Records with an inconclusive call do not appear. Calls of active or inactive are those of the source. Calls follow the shape of the full dose curve.
Answer with one of the outcomes given here: Y for active, N for inactive

Record excerpt, results attached:
{"Structure As Smiles": "Cc1cc2c(cc1C(F)(F)F)N(C(=O)Nc1ccc(Oc3cccnc3C)nc1)CC2", "Group": "N"}
{"Structure As Smiles": "CCOC(=O)O[C@]1(C(=O)OCCl)CC[C@H]2[C@@H]3CCC4=CC(=O)C=C[C@]4(C)[C@H]3[C@@H](O)C[C@@]21C", "Group": "Y"}
{"Structure As Smiles": "CC(C)(C)c1ccc(C(=O)CCCN2CCC(OC(c3ccccc3)c3ccccc3)CC2)cc1", "Group": "N"}
{"Structure As Smiles": "CCCCCCCCCCCCCCCS(=O)(=O)Oc1ccccc1", "Group": "N"}
{"Structure As Smiles": "Nc1ccc2cc(S(=O)(=O)O)cc(O)c2c1N=Nc1ccccc1C(F)(F)F", "Group": "N"}

Exercise: // param item: O=C(O)c1ccc(Cl)c(Cl)c1 ; yields the recorded call
Key: N

Exercise: Then what about the molecule COc1cc(-c2ccc(N=C=O)c(OC)c2)ccc1N=C=O ?
Key: N

Exercise: Then what about the molecule Nc1ccccc1O ?
Key: N

* * *

test: qHTS assay for small molecule agonists of the p53 signaling pathway - cell viability (AID 651633); conditions: p53RE-bla HCT-116 viability, ATP luminescence, 16 h; series mostly up to 83.3 µM; note: nearly all actives have a fitted effect of over 30% in size
Inconclusive results are not listed. Active and inactive are the calls of the source. The call rests on the fitted dose curve.
Answer with one of the outcomes given here: active, inactive

Record excerpt, results attached:
{"Molecule": "O=C1C=CC(=O)N1c1ccc(Cc2ccc(N3C(=O)C=CC3=O)cc2)cc1", "Group": "active"}
{"Molecule": "Nc1c(Cl)cc(Cl)cc1Cl", "Group": "inactive"}
{"Molecule": "C/C=C(\\C)C(=O)OCc1ccccc1", "Group": "inactive"}

Exercise: // param item: C=C(C)C(=O)OCC(O)COc1ccc(C(C)(C)c2ccc(OCC(O)COC(=O)C(=C)C)cc2)cc1 (configuration not stated) ; yields the recorded call
Key: active

* * *

molecular target: Estrogen receptor (Homo sapiens); assay: qHTS assay to identify small molecule antagonists of the estrogen receptor alpha (ER-alpha) signaling pathway (AID 743069); conditions: HEK293 ER-alpha-UAS-bla, beta-lactamase ratio, antagonist mode; series mostly up to 69.4 µM
The source made the active and inactive calls. Calls follow the shape of the dose curve; as a rule, active = well fitted curve in the direction sought with a large enough effect in the signal ratio in the repeat runs (not every such curve was filed as active); inconclusive = weak or mixed curves, or effect the other way; inactive = no such curve, though single readings can be large or run the other way; the % refers to the signal ratio.
Answer with one of the outcomes given here: active, inactive

Record excerpt, results attached:
{"Molecule": "Cn1cc(C(=O)[C@@H]2CCc3nc[nH]c3C2)c2ccccc21", "Group": "inactive"}
{"Molecule": "Oc1ccc(N=Nc2ccccc2)cc1", "Group": "active"}

Exercise: // param item: O=C(O)c1cc(O)c2c(c1)C(=O)c1cccc(O)c1C2=O ; yields the recorded call
Key: inactive

Exercise: Then what about the molecule N#CSc1ccc(N)c([N+](=O)[O-])c1 ?
Key: active

Exercise: Then what about the molecule Cc1cc(O)c2ccccc2c1O ?
Key: inactive

Exercise: Then what about the molecule CCCC(C)c1ccccc1O (stereo not given) ?
Key: inactive

Exercise: Then what about the molecule Cc1cc(C2CCCCC2)n(O)c(=O)c1 ?
Key: active

Exercise: Then what about the molecule CC(=O)SC[C@@H](Cc1ccccc1)C(=O)NCC(=O)OCc1ccccc1 ?
Key: inactive

Exercise: Then what about the molecule CCCCN1CCCC[C@H]1C(=O)Nc1c(C)cccc1C ?
Key: inactive

Exercise: Then what about the molecule COC(=O)C1=C(C)NC(C)=C(C(=O)OCC(C)C)C1c1ccccc1[N+](=O)[O-] (stereo not given) ?
Key: active

Exercise: Then what about the molecule CCCC/C=C/CCCCO ?
Key: inactive

Exercise: Then what about the molecule CCCCCCCCCCn1cc[n+](CCCCCCCCCC)c1C ?
Key: active

Exercise: Then what about the molecule CCCCCCCC/C=C\CCCCCCCCOCCO ?
Key: active

Exercise: Then what about the molecule Cc1cccc(S(=O)(=O)O)c1C ?
Key: inactive

Exercise: Then what about the molecule Cc1cccc(CN2CCN(C(c3ccccc3)c3ccc(Cl)cc3)CC2)c1 (stereo not given) ?
Key: inactive

Exercise: Then what about the molecule CC(=O)S[C@@H]1CC2=CC(=O)CC[C@]2(C)[C@H]2CC[C@@]3(C)[C@@H](CC[C@@]34CCC(=O)O4)[C@H]12 ?
Key: active

Exercise: Then what about the molecule CCCCCCCC[N+](CCCCCCCC)(CCCCCCCC)CCCCCCCC ?
Key: active

Exercise: Then what about the molecule CCCCC(CC)COP(=O)(O)OCC(CC)CCCC (stereo not given) ?
Key: active

Exercise: Then what about the molecule CN1CCN(CCC(=O)N2c3ccccc3Sc3ccc(C(F)(F)F)cc32)CC1 ?
Key: inactive

* * *

Molecular target: Thyrotropin receptor (Homo sapiens) (UniProt P16473)
Sequence (P16473 whole entry, looked up): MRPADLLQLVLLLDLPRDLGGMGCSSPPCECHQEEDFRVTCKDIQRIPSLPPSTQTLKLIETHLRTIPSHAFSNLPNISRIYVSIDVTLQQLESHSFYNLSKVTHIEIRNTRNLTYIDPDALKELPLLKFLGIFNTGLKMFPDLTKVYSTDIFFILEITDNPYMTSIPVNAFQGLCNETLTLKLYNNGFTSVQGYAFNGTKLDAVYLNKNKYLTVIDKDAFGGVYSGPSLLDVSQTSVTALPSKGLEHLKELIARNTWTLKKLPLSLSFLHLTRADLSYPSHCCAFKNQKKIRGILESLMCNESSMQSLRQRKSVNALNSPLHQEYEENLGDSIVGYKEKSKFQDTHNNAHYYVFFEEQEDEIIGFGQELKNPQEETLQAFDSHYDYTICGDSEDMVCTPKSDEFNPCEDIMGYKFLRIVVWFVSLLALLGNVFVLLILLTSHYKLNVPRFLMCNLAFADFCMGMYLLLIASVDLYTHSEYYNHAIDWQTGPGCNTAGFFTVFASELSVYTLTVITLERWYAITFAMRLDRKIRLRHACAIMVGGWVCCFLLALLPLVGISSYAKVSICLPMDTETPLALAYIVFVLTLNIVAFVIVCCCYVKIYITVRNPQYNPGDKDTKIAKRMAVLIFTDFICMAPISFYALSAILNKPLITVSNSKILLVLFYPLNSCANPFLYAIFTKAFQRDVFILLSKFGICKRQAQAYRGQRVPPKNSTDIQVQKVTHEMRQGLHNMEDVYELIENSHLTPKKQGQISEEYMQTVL
Assay: qHTS assay to identify small molecule agonists of the thyroid stimulating hormone receptor (TSHR) signaling pathway (AID 1224843); note: nearly all actives have a fitted effect of over 45% in size
Details: TSHR-HEK293 cells, cAMP HTRF, agonist mode, 30 min; series mostly up to 92.4 µM
Method: National Center for Advancing Translational Sciences [NCATS] NIH Chemical Genomics Center [NCGC] U.S. Environmental Protection Agency [EPA] National Institutes of Environmental Health Sciences [NIEHS] National Toxicology Program [NTP] […] TSHR-Hek293 cells were dispensed at 800 cells/4uL/well in 1536-well white plates using a Multidrop dispenser. […] After 1 hr incubation at room temperature, the fluorescence intensity in the plates was measured using an Envision plate reader. […]
Records with an inconclusive call do not appear. Calls of active or inactive are those of the source. Calls come from the whole dose curve.
Answer with one of the outcomes given here: 1 (yes) = active, 0 (no) = inactive

Exercise: // param item: CCCCCCCC[P+](CCCCCCCC)(CCCCCCCC)CCCCCCCC ; yields the recorded call
Key: 0 (no)

Exercise: Then what about the compound Cc1nc(-c2ccc3c(c2)CCN(CCC2CCC(NC(=O)/C=C/c4ccc(F)cc4)CC2)CC3)no1 (stereo unspecified) ?
Key: 0 (no)

Exercise: Then what about the compound CNC(=O)c1ccccc1 ?
Key: 0 (no)

Exercise: Then what about the compound CCCCCCCCn1sc(Cl)c(Cl)c1=O ?
Key: 0 (no)

Exercise: Then what about the compound COc1ccc(-c2ccc3cc(C(=O)O)ccc3c2)cc1C12CC3CC(CC(C3)C1)C2 ?
Key: 0 (no)

Exercise: Then what about the compound O=S1(=O)CC(Cl)(Cl)C(Cl)(Cl)C1 ?
Key: 1 (yes)
